Origin of measurements: the Immune Epitope Database (IEDB)

System: HLA-A*31:01
Assay method text: IEDB peptide-MHC binding, purified MHC/direct/fluorescence; filed as Kd, often an IC50 or EC50 that approximates it; bounds were set here for any values at or beyond the usual limits of such assays
Stated conditions: source organism: Mycobacterium tuberculosis
Readout kind: Kd

| Residue sequence | Kd |
| --- | --- |
| SQAFNTPAL | ≥ 20 µM |
| SPREECGVF | ≥ 20 µM |

Next item in the queue.
Let me check: `KLVGIELPK` , system HLA-A*31:01, measured Kd is 6.82 µM

* * *

System: HLA-A*02:06
Assay method text: IEDB peptide-MHC binding, purified MHC/competitive/radioactivity; filed as Kd, often an IC50 or EC50 that approximates it; bounds were set here for any values at or beyond the usual limits of such assays
Stated conditions: source organism: Lassa virus Josiah
Readout kind: Kd (µM)
Please reply with the bare figure in µM and do not write the unit itself.

For this sequence ( `LTYSQLMTL` ), measured Kd is 0.0578

* * *

System: HLA-A*01:01
Assay method text: IEDB peptide-MHC binding, purified MHC/competitive/fluorescence; filed as Kd, often an IC50 or EC50 that approximates it; bounds were set here for any values at or beyond the usual limits of such assays
Stated conditions: source organism: Escherichia coli O139:H28 str. E24377A
Readout kind: Kd

Kd reading for `ITDMRNGFN` : ≥ 20 µM

* * *

System: HLA-A*29:02
Assay method text: IEDB peptide-MHC binding, purified MHC/direct/fluorescence; filed as Kd, often an IC50 or EC50 that approximates it; bounds were set here for any values at or beyond the usual limits of such assays
Stated conditions: source organism: Bacillus cereus G9842
pKd: −log10 of the molar value.
Readout kind: pKd

Entry `TQIPRQMVL` , tested on HLA-A*29:02, has a reported pKd of ≤ 4.70

* * *

System: HLA-C*05:01
Assay method text: IEDB peptide-MHC binding, purified MHC/direct/fluorescence; filed as Kd, often an IC50 or EC50 that approximates it; bounds were set here for any values at or beyond the usual limits of such assays
Stated conditions: source organism: human gammaherpesvirus 4
The sequences listed here are annotated with their Kd.

| Residue sequence | Kd |
| --- | --- |
| VTDEGTSSF | ≤ 1 nM |

Query sequence follows.
Noted for `FLDKGTYTL` : its Kd reads ≤ 1 nM

* * *

System: HLA-B*08:01
Assay method text: IEDB peptide-MHC binding, purified MHC/direct/fluorescence; filed as Kd, often an IC50 or EC50 that approximates it; bounds were set here for any values at or beyond the usual limits of such assays
Stated conditions: source organism: Influenza A virus H3N2
Readout kind: Kd

GET /values?item= `VSDGGPNLY` &system= HLA-B*08:01 returns Kd: ≥ 20 µM

* * *

System: HLA-B*39:01
Assay method text: IEDB peptide-MHC binding, purified MHC/competitive/fluorescence; filed as Kd, often an IC50 or EC50 that approximates it; bounds were set here for any values at or beyond the usual limits of such assays
Stated conditions: source organism: Orthohantavirus puumalaense
pKd: −log10 of the molar value.
Readout kind: pKd

Reported HLA-B*39:01 pKd for item `LRYGNVLDV` was ≤ 4.70

* * *

System: HLA-B*46:01
Assay method text: IEDB peptide-MHC binding, purified MHC/direct/fluorescence; filed as Kd, often an IC50 or EC50 that approximates it; bounds were set here for any values at or beyond the usual limits of such assays
Stated conditions: source organism: Brucella suis 1330
Readout kind: Kd

Quick note, Kd for `ETVWPFFYA` landed at ≥ 20 µM

* * *

System: HLA-B*83:01
Assay method text: IEDB peptide-MHC binding, purified MHC/competitive/fluorescence; filed as Kd, often an IC50 or EC50 that approximates it; bounds were set here for any values at or beyond the usual limits of such assays
Stated conditions: source organism: Zaire ebolavirus
Readout kind: Kd

Kd in this record for `LEARVNLSV` : ≥ 5 µM

* * *

System: HLA-A*01:01
Assay method text: IEDB peptide-MHC binding, purified MHC/competitive/fluorescence; bounds were set here for any values at or beyond the usual limits of such assays
Stated conditions: source organism: Vaccinia virus WR
Readout kind: pIC50
Reminder that pIC50 means the negative base-10 logarithm of the concentration expressed in mol/L.

# sequence `ITCKAFGLY` ; its pIC50 = 5.81

* * *

System: HLA-B*51:01
Assay method text: IEDB peptide-MHC binding, purified MHC/competitive/radioactivity; filed as Kd, often an IC50 or EC50 that approximates it; bounds were set here for any values at or beyond the usual limits of such assays
Stated conditions: source organism: Dengue virus 3 Martinique/1243/1999
Readout kind: Kd (µM)
Report as a plain number; the unit µM is understood.

Summary for this sequence, `LPPEKCDTL` : Kd is 7.73

* * *

System: HLA-A*02:12
Assay method text: IEDB peptide-MHC binding, purified MHC/competitive/fluorescence; filed as Kd, often an IC50 or EC50 that approximates it; bounds were set here for any values at or beyond the usual limits of such assays
Stated conditions: source organism: Entamoeba histolytica HM-1:IMSS
Readout kind: Kd

Documented Kd of `KVSVGSYFC` : ≥ 20 µM

* * *

System: HLA-B*08:01
Assay method text: IEDB peptide-MHC binding, purified MHC/competitive/radioactivity; filed as Kd, often an IC50 or EC50 that approximates it; bounds were set here for any values at or beyond the usual limits of such assays
Stated conditions: source organism: Hepacivirus hominis
Readout kind: Kd

Form: sequence = `RNWAHSSL` ; Kd = ≥ 67.5 µM

* * *

The reader will find reported pKd values listed item by item below.
System: HLA-A*68:02
Assay method text: IEDB peptide-MHC binding, purified MHC/direct/fluorescence; filed as Kd, often an IC50 or EC50 that approximates it; bounds were set here for any values at or beyond the usual limits of such assays
Stated conditions: source organism: Vibrio vulnificus
pKd: −log10 of the molar value.

| Residue sequence | pKd |
| --- | --- |
| YQRALHTSI | ≤ 4.70 |

Then this sequence:
Entry `IEFIEVVRL` , pKd reported as ≤ 4.70

* * *

System: HLA-B*18:01
Assay method text: IEDB peptide-MHC binding, purified MHC/direct/fluorescence; filed as Kd, often an IC50 or EC50 that approximates it; bounds were set here for any values at or beyond the usual limits of such assays
Stated conditions: source organism: Influenza A virus (A/SW/MN/12883/00(H1N2))
Readout kind: pKd
On this scale, pKd is minus log10 of a concentration expressed in M (mol/L).

pKd for `NEVGARILT` is 6.18

* * *

System: HLA-A*69:01
Assay method text: IEDB peptide-MHC binding, purified MHC/competitive/fluorescence; filed as Kd, often an IC50 or EC50 that approximates it; bounds were set here for any values at or beyond the usual limits of such assays
Stated conditions: source organism: Vibrio cholerae 2740-80
Readout kind: Kd

Per the record, `CERYGFPAS` has Kd of ≥ 20 µM

* * *

System: HLA-B*27:05
Assay method text: IEDB peptide-MHC binding, purified MHC/direct/fluorescence; filed as Kd, often an IC50 or EC50 that approximates it; bounds were set here for any values at or beyond the usual limits of such assays
Stated conditions: source organism: Burkholderia mallei
This listing pairs sequences with measured Kd.

| Residue sequence | Kd |
| --- | --- |
| APAKKAAAK | ≥ 20 µM |

Then this sequence:
Lab note: `AVAVARVAA` gave Kd of ≥ 20 µM

* * *

System: HLA-B*08:01
Assay method text: IEDB peptide-MHC binding, purified MHC/competitive/radioactivity; filed as Kd, often an IC50 or EC50 that approximates it; bounds were set here for any values at or beyond the usual limits of such assays
Stated conditions: source organism: Dengue virus 1 Brazil/97-11/1997
Listing of entries alongside the reported Kd.
Give the value, in units of nM, as a plain number.

Worked cases, Kd given:
| Residue sequence | Kd / nM |
| --- | --- |
| SMAMRCVGI | 5.95 |
| LKDGPERVIL | 2540 |

Entry `ITQKGIIFIL` — recorded Kd = 577

Reported Kd ( `IYRILQRGLL` ) = 2570

* * *

System: HLA-A*02:19
Assay method text: IEDB peptide-MHC binding, purified MHC/direct/fluorescence; filed as Kd, often an IC50 or EC50 that approximates it; bounds were set here for any values at or beyond the usual limits of such assays
Stated conditions: source organism: Choclo virus
Readout kind: Kd

Short answer for `LRYGNVLDV` : Kd was ≥ 20 µM

* * *

System: HLA-B*40:01
Assay method text: IEDB peptide-MHC binding, purified MHC/competitive/radioactivity; filed as Kd, often an IC50 or EC50 that approximates it; bounds were set here for any values at or beyond the usual limits of such assays
Stated conditions: source organism: Dengue virus 4 Philippines/H241/1956
Readout kind: pKd
// pKd: -log10(molar conc.)

Previously resolved entries follow.
| Residue sequence | Measured number |
| --- | --- |
| SEVCDHRLM | 6.52 |
| LETRAETWM | 6.58 |
| GETAWDFGSV | 6.41 |

Record summary for `KERMVTFKV` : reported pKd = 5.24

For record `VEDYGFGMF` the listed pKd is 6.02
